- Test system: PPARg:RXRa 30nM:10nM, anti-RXR (NR concentration 30 nM, RXRa partner concentration 10 nM)
- assay: PBM binding z-score (relative to random genomic background probes); higher = stronger binding; sequences stand for … in GC…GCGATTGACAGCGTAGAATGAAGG
The reader will find reported PBM binding z-score values listed item by item below.
Kindly provide the number alone.

[
  {
    "sequence_record": "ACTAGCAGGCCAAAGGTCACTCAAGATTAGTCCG",
    "target_or_system": "PPARg:RXRa 30nM:10nM, anti-RXR (NR concentration 30 nM, RXRa partner concentration 10 nM)",
    "endpoint_label": "PBM binding z-score",
    "result_number": 8.65
  },
  {
    "sequence_record": "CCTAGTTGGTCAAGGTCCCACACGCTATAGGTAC",
    "target_or_system": "PPARg:RXRa 30nM:10nM, anti-RXR (NR concentration 30 nM, RXRa partner concentration 10 nM)",
    "endpoint_label": "PBM binding z-score",
    "result_number": -0.0168
  },
  {
    "sequence_record": "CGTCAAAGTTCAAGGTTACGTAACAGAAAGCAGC",
    "target_or_system": "PPARg:RXRa 30nM:10nM, anti-RXR (NR concentration 30 nM, RXRa partner concentration 10 nM)",
    "endpoint_label": "PBM binding z-score",
    "result_number": 2.35
  },
  {
    "sequence_record": "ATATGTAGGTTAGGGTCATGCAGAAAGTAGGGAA",
    "target_or_system": "PPARg:RXRa 30nM:10nM, anti-RXR (NR concentration 30 nM, RXRa partner concentration 10 nM)",
    "endpoint_label": "PBM binding z-score",
    "result_number": 4.91
  },
  {
    "sequence_record": "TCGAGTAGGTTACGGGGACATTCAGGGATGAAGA",
    "target_or_system": "PPARg:RXRa 30nM:10nM, anti-RXR (NR concentration 30 nM, RXRa partner concentration 10 nM)",
    "endpoint_label": "PBM binding z-score",
    "result_number": 1.81
  }
]

Incoming: Entry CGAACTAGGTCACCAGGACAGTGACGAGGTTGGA has what PBM binding z-score?
Outgoing: 4.41

Incoming: Entry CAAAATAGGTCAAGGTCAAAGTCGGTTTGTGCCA please
Outgoing: 5.59

Incoming: Entry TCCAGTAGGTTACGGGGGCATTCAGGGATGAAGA please
Outgoing: 5.22

Incoming: Entry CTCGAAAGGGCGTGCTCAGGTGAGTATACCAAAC please
Outgoing: -0.439

Incoming: Entry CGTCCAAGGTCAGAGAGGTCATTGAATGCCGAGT please
Outgoing: 1.68

Incoming: Entry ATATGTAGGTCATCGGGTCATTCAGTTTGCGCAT please
Outgoing: 6.72

Incoming: Entry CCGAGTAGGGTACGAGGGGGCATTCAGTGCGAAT please
Outgoing: 0.0374

----------
- System: RARa:RXR (NR concentration 270 nM, RXRa partner concentration 90 nM)
- assay: PBM binding z-score (relative to random genomic background probes); higher = stronger binding; sequences stand for … in GC…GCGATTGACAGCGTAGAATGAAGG
# binarize PBM binding z-score: threshold 2 inclusive, high side true (1), low side false (0)

Study these solved cases before continuing.
[
  {
    "sequence_record": "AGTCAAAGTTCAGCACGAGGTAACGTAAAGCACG",
    "assigned_category": "true (1)"
  },
  {
    "sequence_record": "CGAACTAGCTCACCAGGACAGTGAAGAGGTTGGA",
    "assigned_category": "false (0)"
  },
  {
    "sequence_record": "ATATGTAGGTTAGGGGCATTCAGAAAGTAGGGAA",
    "assigned_category": "false (0)"
  }
]

Incoming: Check this sequence for PBM binding z-score at or above 2: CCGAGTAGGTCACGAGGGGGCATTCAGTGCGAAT
Outgoing: true (1)

Incoming: Entry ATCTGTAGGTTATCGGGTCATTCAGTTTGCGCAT please
Outgoing: true (1)

Incoming: Entry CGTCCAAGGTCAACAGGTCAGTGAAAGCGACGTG please
Outgoing: true (1)

----------
- System: PPARg:RXRa 270nM:90nM, anti-RXR (NR concentration 270 nM, RXRa partner concentration 90 nM)
- assay: PBM binding z-score (relative to random genomic background probes); higher = stronger binding; sequences stand for … in GC…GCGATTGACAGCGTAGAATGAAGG
endpoint_label: PBM binding z-score
Kindly provide the number alone.

Known results for sequences:
[
  {
    "sequence_record": "ACTAGTTGGTAAGCTGAGGTCACACACAATTCGG",
    "PBM binding z-score": 1.96
  },
  {
    "sequence_record": "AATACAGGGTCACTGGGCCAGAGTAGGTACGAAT",
    "PBM binding z-score": 6.98
  },
  {
    "sequence_record": "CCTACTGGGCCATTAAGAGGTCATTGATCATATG",
    "PBM binding z-score": 3.06
  },
  {
    "sequence_record": "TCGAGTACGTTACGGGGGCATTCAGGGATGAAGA",
    "PBM binding z-score": 1.72
  },
  {
    "sequence_record": "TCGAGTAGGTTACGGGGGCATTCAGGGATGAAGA",
    "PBM binding z-score": 5.71
  },
  {
    "sequence_record": "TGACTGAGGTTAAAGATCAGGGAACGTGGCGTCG",
    "PBM binding z-score": 3.98
  },
  {
    "sequence_record": "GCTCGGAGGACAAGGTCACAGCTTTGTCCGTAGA",
    "PBM binding z-score": 4.17
  },
  {
    "sequence_record": "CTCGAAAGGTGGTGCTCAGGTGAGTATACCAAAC",
    "PBM binding z-score": -0.0981
  },
  {
    "sequence_record": "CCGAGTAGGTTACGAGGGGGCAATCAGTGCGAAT",
    "PBM binding z-score": 3.24
  },
  {
    "sequence_record": "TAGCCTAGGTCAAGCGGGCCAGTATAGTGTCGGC",
    "PBM binding z-score": 2.59
  }
]

Incoming: Entry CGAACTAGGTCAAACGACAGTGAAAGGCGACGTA has what PBM binding z-score?
Outgoing: 6.9

Incoming: Entry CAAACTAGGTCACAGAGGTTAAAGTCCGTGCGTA please
Outgoing: 7.64

----------
- Tested on: PPARg:RXRa 270nM:90nM, anti-RXR (NR concentration 270 nM, RXRa partner concentration 90 nM)
- assay: PBM binding z-score (relative to random genomic background probes); higher = stronger binding; sequences stand for … in GC…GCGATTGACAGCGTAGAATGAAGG
The reader will find reported PBM binding z-score values listed item by item below.
Kindly provide the number alone.

Known results for sequences:
[
  {
    "sequence_record": "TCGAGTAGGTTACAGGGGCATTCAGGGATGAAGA",
    "PBM binding z-score": 2.87
  },
  {
    "sequence_record": "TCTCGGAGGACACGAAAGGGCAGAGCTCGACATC",
    "PBM binding z-score": 0.85
  },
  {
    "sequence_record": "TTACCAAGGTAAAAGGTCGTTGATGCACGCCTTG",
    "PBM binding z-score": 6.8
  },
  {
    "sequence_record": "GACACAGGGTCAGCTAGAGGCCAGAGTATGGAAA",
    "PBM binding z-score": 3.17
  },
  {
    "sequence_record": "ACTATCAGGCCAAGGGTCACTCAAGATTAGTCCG",
    "PBM binding z-score": 7.12
  },
  {
    "sequence_record": "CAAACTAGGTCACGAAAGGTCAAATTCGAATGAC",
    "PBM binding z-score": 8.52
  },
  {
    "sequence_record": "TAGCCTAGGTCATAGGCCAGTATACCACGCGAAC",
    "PBM binding z-score": 4.54
  },
  {
    "sequence_record": "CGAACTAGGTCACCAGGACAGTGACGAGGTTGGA",
    "PBM binding z-score": 6.98
  },
  {
    "sequence_record": "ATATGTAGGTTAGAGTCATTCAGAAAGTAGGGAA",
    "PBM binding z-score": 4.03
  },
  {
    "sequence_record": "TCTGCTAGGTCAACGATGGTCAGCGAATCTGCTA",
    "PBM binding z-score": 3.03
  }
]

Incoming: Entry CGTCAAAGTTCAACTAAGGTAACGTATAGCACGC has what PBM binding z-score?
Outgoing: 5.56

Incoming: Entry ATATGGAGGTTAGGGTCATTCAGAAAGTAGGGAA please
Outgoing: 4.47

Incoming: Entry GGAACGGGGGCAAGTTGATAGCAGAGTTTGATGG please
Outgoing: 4.52

This collection of values is drawn from the supplement of paper PMC6555819.
